Target system: CD28 (human) (UniProt P10747)
Assay text: flow cytometry, transfected cells
Readout name: MFI (MFI)
Numeric only. Scale: MFI

Measured MFI of ICOSL-Fc N52T/N57H/Q100S (Fc fusion) DTQEKEVRAMVGSDVELSCACPEGSRFDLNDVYVYWQTSESKTVVTYHIPQTSSLEHVDSRYRNRALMSPAGMLRGDFSLRLFNVTPQDEQKFHCLVLSSSLGFQEVLSVEVTLHVAANFSVPVVSAPHSPSQDELTFTCTSINGYPRPNVYWINKTDNSLLDQALQNDTVFLNMRGLYDVVSVLRIARTPSVNIGCCIENVLLQQNLTVGSQTGNDIGERDKITENPVSTGEKNAAT : 143000

Measured MFI of ICOSL ECD-Fc N119Q/N207Q (Fc fusion) DTQEKEVRAMVGSDVELSCACPEGSRFDLNDVYVYWQTSESKTVVTYHIPQNSSLENVDSRYRNRALMSPAGMLRGDFSLRLFNVTPQDEQKFHCLVLSQSLGFQEVLSVEVTLHVAAQFSVPVVSAPHSPSQDELTFTCTSINGYPRPNVYWINKTDNSLLDQALQNDTVFLNMRGLYDVVSVLRIARTPSVNIGCCIENVLLQQQLTVGSQTGNDIGERDKITENPVSTGEKNAAT : 1860

Measured MFI of ICOSL-Fc N52S/N57H/Q100E (Fc fusion) DTQEKEVRAMVGSDVELSCACPEGSRFDLNDVYVYWQTSESKTVVTYHIPQSSSLEHVDSRYRNRALMSPAGMLRGDFSLRLFNVTPQDEQKFHCLVLSESLGFQEVLSVEVTLHVAANFSVPVVSAPHSPSQDELTFTCTSINGYPRPNVYWINKTDNSLLDQALQNDTVFLNMRGLYDVVSVLRIARTPSVNIGCCIENVLLQQNLTVGSQTGNDIGERDKITENPVSTGEKNAAT : 117000

Measured MFI of ICOSL-Fc N52Q/N57S/Q100A (Fc fusion) DTQEKEVRAMVGSDVELSCACPEGSRFDLNDVYVYWQTSESKTVVTYHIPQQSSLESVDSRYRNRALMSPAGMLRGDFSLRLFNVTPQDEQKFHCLVLSASLGFQEVLSVEVTLHVAANFSVPVVSAPHSPSQDELTFTCTSINGYPRPNVYWINKTDNSLLDQALQNDTVFLNMRGLYDVVSVLRIARTPSVNIGCCIENVLLQQNLTVGSQTGNDIGERDKITENPVSTGEKNAAT : 91300

Measured MFI of ICOSL-Fc N52S/N57L/Q100S (Fc fusion) DTQEKEVRAMVGSDVELSCACPEGSRFDLNDVYVYWQTSESKTVVTYHIPQSSSLELVDSRYRNRALMSPAGMLRGDFSLRLFNVTPQDEQKFHCLVLSSSLGFQEVLSVEVTLHVAANFSVPVVSAPHSPSQDELTFTCTSINGYPRPNVYWINKTDNSLLDQALQNDTVFLNMRGLYDVVSVLRIARTPSVNIGCCIENVLLQQNLTVGSQTGNDIGERDKITENPVSTGEKNAAT : 108000
